Sourced from paper PMC10788917

Biological target: HDAC8 (Homo sapiens)
Construct: one additional N-terminal residue 'H' (His) (N)
Sequence (Q9BY41 1-377): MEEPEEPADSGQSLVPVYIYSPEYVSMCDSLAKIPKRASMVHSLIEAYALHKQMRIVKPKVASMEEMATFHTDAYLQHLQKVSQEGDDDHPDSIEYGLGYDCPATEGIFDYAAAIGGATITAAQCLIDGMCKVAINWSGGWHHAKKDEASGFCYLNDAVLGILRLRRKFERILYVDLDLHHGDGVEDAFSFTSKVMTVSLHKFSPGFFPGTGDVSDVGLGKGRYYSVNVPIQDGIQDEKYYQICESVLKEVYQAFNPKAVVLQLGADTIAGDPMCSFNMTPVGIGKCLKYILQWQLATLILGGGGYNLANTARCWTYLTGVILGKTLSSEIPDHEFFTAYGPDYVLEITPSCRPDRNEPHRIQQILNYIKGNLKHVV
Assay: Kinetic parameters of inactivation from time-dependent IC50
Settings: HDAC8, inactivation constant
Reported Ki values for the following compounds.
Test Readout: Ki (nM)

>>> print(df.to_string())
                                   compound       subject_of_test  unit_abbreviation  reading
0  C#Cc1c[n+](C)ccc1NC(=O)CC(=O)N1Cc2ccccc2C1.[I-] [compound 3]  HDAC8 (Homo sapiens)                 nM     3200
1                   C#Cc1ccc[n+](C)c1 [B6+]  HDAC8 (Homo sapiens)                 nM      800

###

molecular target: HDAC8 Cys102Ser/Cys153Ser/Cys275Ser (Homo sapiens, UniProt Q9BY41, C102S/C153S/C275S); construct: made in house; assay: HDAC8 mutant biochemical assay; conditions: read-out: IC50 [μM] @ 100 nM HDAC8: F Cys102Ser/Cys153Ser/Cys275Ser, 1 h preincubation
Cut-off 20 µM on IC50: below means yes, at or above means no.

In [3]: df
Out[3]:
               molecule  discrete_label
0  C[n+]1cccnc1Cl [D1+]             yes
1  C[n+]1cccnc1Br [D2+]              no
2       C#Cc1nccc[n+]1C              no
3       C[n+]1ccc(I)cc1             yes
4         C[n+]1cccnc1I             yes

###

Target: HDAC8 Cys102Ser/Cys153Ser/Cys314Ser (Homo sapiens, UniProt Q9BY41, C102S/C153S/C314S)
Construct: made in house
Sequence (Q9BY41 1-377 C102S/C153S/C314S): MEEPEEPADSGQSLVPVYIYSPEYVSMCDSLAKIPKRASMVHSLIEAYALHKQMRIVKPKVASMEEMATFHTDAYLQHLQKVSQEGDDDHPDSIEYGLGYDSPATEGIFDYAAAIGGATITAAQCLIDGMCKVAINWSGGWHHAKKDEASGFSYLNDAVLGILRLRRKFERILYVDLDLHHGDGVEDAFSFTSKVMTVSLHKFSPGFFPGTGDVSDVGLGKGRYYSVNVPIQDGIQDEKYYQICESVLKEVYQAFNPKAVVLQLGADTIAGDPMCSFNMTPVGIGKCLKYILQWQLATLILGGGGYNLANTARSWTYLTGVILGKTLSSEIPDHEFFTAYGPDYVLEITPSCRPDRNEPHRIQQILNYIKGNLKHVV
Assay: HDAC8 mutant biochemical assay
Conditions: read-out: IC50 [μM] @ 100 nM HDAC8: H Cys102Ser/Cys153Ser/Cys314Ser, 1 h preincubation
Test Readout: IC50

>>> df
                  compound                           subject_of_test  test_readout   reading
0     C[n+]1cccnc1Br [D2+]  HDAC8 Cys102Ser/Cys153Ser/Cys314Ser (Homo sapiens, UniProt Q9BY41, C102S/C153S/C314S)          IC50  > 130 µM
1     C[n+]1cccnc1Cl [D1+]  HDAC8 Cys102Ser/Cys153Ser/Cys314Ser (Homo sapiens, UniProt Q9BY41, C102S/C153S/C314S)          IC50  > 130 µM
2  C#Cc1c[n+](C)ccn1 [G6+]  HDAC8 Cys102Ser/Cys153Ser/Cys314Ser (Homo sapiens, UniProt Q9BY41, C102S/C153S/C314S)          IC50  > 130 µM
